FYI, the data here is from patent US4619942A.

Measured Single cycle yield of RS virus (RS virus titers), listed per entry.
system: RS virus; details: 10 μM; moi 1-2; control titers 1-5 × 10^7

# compound N=C(N)c1ccc2nc(CCc3nc4ccc(C(=N)N)cc4[nH]3)[nH]c2c1 ; its Single cycle yield of RS virus (RS virus titers) = 6.3 × 10^7 TCID50/ml

# compound N=C(N)c1ccc(OCc2cccc(COc3ccc(C(=N)N)cc3I)c2)c(I)c1 ; its Single cycle yield of RS virus (RS virus titers) = 6.3 × 10^6 TCID50/ml

# compound N=C(N)c1ccc(OCCC(O)COc2ccc(C(=N)N)cc2)cc1 (stereo not shown) ; its Single cycle yield of RS virus (RS virus titers) = 0.5 × 10^7 TCID50/ml

# compound N=C(N)c1ccc(OCCCCCCCCOc2ccccc2)cc1 ; its Single cycle yield of RS virus (RS virus titers) = 3.5 × 10^7 TCID50/ml

# compound N=C(N)c1ccc2occc2c1 ; its Single cycle yield of RS virus (RS virus titers) = 1.1 × 10^7 TCID50/ml

# compound N=C(N)c1ccc(OCCCCCCOc2ccccc2)cc1 ; its Single cycle yield of RS virus (RS virus titers) = 3.5 × 10^7 TCID50/ml

# compound N=C(N)c1ccc2[nH]ccc2c1 ; its Single cycle yield of RS virus (RS virus titers) = 2.9 × 10^7 TCID50/ml

---

test system: RS virus; conditions: 100 μM; moi 1-2; control titers 1-5 × 10^7
property_label: Single cycle yield of RS virus (RS virus titers)

Use these answered entries as a reference point.
| molecule | reported_result |
| --- | --- |
| N=C(N)c1ccc2nc(CCc3nc4ccc(C(=N)N)cc4[nH]3)[nH]c2c1 [Compound 8] | 7.9 × 10^7 TCID50/ml |
| N=C(N)c1ccc(OCCC(O)COc2ccc(C(=N)N)cc2)cc1 (centres unmarked) [Compound 5, 1,4-Di(4-amidinophenoxy)-2-butanol] | 5.0 × 10^5 TCID50/ml |

# molecule N=C(N)c1ccc2[nH]ccc2c1 [Compound 9, 5-Amidinoindole] ; its Single cycle yield of RS virus (RS virus titers) = 6.3 × 10^7 TCID50/ml

# molecule N=C(N)c1ccc2occc2c1 [Compound 10, 5-Amidinobenzofuran] ; its Single cycle yield of RS virus (RS virus titers) = 6.3 × 10^7 TCID50/ml

# molecule N=C(N)c1ccc2nc[nH]c2c1 [Compound 11, 5-Amidinobenzimidazole] ; its Single cycle yield of RS virus (RS virus titers) = 8.7 × 10^7 TCID50/ml
